- target-desc: T1, TRBPpm (phospho-mimic) (human, UniProt Q15633 1-366, S142D;S152D;S283D;S286D)
- T1 sequence: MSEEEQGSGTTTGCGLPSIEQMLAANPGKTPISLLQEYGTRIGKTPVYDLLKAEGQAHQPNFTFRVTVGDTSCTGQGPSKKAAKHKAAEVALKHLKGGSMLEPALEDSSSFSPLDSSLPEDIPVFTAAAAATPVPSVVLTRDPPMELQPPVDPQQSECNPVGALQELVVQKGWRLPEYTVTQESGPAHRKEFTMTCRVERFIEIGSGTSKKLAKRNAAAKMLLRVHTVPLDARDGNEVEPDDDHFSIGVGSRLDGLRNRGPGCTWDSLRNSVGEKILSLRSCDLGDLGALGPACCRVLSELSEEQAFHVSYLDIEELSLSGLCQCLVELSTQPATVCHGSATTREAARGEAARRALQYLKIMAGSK
- method-summary: filter binding
pKd: −log10 of the molar value.
property: pKd

Reported pKd for 35-bp duplex (pre-siRNA) (dsRNA) RNA 1: UGAGGUAGUAGGUUGUAUAGUUUGAAAGUUCACGAUU RNA 2: UCGUGAACUUUCAAACUAUACAACCUACUACCUCAAA was > 10.00
